Molecular target: T1, Murine serum albumin (MSA) (mouse, UniProt P07724 25-608)
T1 construct: Bought protein (Sigma); also called murine albumin; mouse albumin
Test: ELISA on coated murine albumin, anti-human Fc HRP, A650, one site-total binding fit
METRIC_NAME: pKd
FYI, pKd means -log10 of a concentration in mol per litre.

Would you please look over these solved cases?
BINDER	REPORTED_VALUE
4A01-NNT-hFc (Fc fusion, Monomeric sdAb-Fc fusion (Fc S364N, Y407N, K409T = NNT); also called 1m4A01; anti-albumin sdAb 4A01) QVQLQESGGGLVQPGGSLRLSCAASGFAFSTSGMVWVRQATGKGLEWVSTISDDSRIIRYADSVNGRFTISRDNAENTLYLLMNSLKPEDTAVYYCATYRAGSRIGSYEDYYRGQGTQVTVSSGGPSVFLFPPKPKDTLMISRTPEVTCVVVDVSHEDPEVKFNWYVDGVEVHNAKTKPREEQYNSTYRVVSVLTVLHQDWLNGKEYKCKVSNKALPAPIEKTISKAKGQPREPQVYTLPPSRDELTKNQVNLTCLVKGFYPSDIAVEWESNGQPENNYKTTPPVLDSDGSFFLNSTLTVDKSRWQQGNVFSCSVMHEALHNHYTQKSLSLSPG	9.94
4A01v3-1 (Fc fusion, not shown: a dimerising Fc or GST; small tags and cut ends, also called Hz4A01v3-1) VHH: EVQLVESGGGEVQPGGSLRLSCAASGFTFSTSGMVWVRQAPGKGLEWVSTISDDARIIRYAESVKGRFTISRDNAKNTLYLQMNSLRAEDTAVYYCATYRAGSRIGSYEDYYRGQGTLVTVKP	9.96
4A01v3-8 (Fc fusion, also called Hz4A01v3-8; not shown: Human Fc carrier and its linker) VHH: EVQLVESGGGEVQPGGSLRLSCAASGFAFSTSGMVWVRQAPGKGLEWVSTISDDARIIRYAESVKGRFTISRDNAKNTLYLQMNSLRAEDTAVYYCATYRAGSRIGSYEDYYWGQGTLVTVKP	9.85
4A01v9 (Fc fusion, not shown: a dimerising Fc or GST; small tags and cut ends, also called Hz4A01v9) VHH: EVQLVESGGGEVQPGGSLRLSCAASGFAFSTSGMVWVRQAPGKGLEWVSTISDDTRIIRYAESVKGRFTISRDNAKNTLYLQMNSLRAEDTAVYYCATYRAGSRIGSYEDYYRGQGTLVTVKP	9.95

Query: For 4A01v1 (Fc fusion, also called Hz4A01v1; not shown: Human Fc carrier and its linker) VHH: EVQLVESGGGEVQPGGSLRLSCAASGFAFSTSGMVWVRQAPGKGLEWVSTISDDSRIIRYAESVKGRFTISRDNAKNTLYLQMNSLRAEDTAVYYCATYRAGSRIGSYEDYYRGQGTLVTVKP , what is its reported pKd?
Response: 9.89

Query: For 4A01v3-4 (Fc fusion, also called Hz4A01v3-4; not shown: Human Fc carrier and its linker) VHH: EVQLVESGGGEVQPGGSLRLSCAASGFAFSTSGMSWVRQAPGKGLEWVSTISDDARIIRYAESVKGRFTISRDNAKNTLYLQMNSLRAEDTAVYYCATYRAGSRIGSYEDYYRGQGTLVTVKP , what is its reported pKd?
Response: 9.62

Query: For 4A01v3-5 (Fc fusion, also called Hz4A01v3-5; not shown: Human Fc carrier and its linker) VHH: EVQLVESGGGEVQPGGSLRLSCAASGFAFSTSGMVWYRQAPGKGLEWVSTISDDARIIRYAESVKGRFTISRDNAKNTLYLQMNSLRAEDTAVYYCATYRAGSRIGSYEDYYRGQGTLVTVKP , what is its reported pKd?
Response: 9.95
